test system: Quadruplex DNA; assay: Binding affinity to G-quadruplex telomeric DNA F21T (5'-duplex GGG TTAGGG TTAGGG TTAGGG-3') (unknown origin) assessed as stabilization by measuring change in melting temperature at 10 uM in sodium buffer by FRET melting assay; format: nucleic-acid assay
assayEndpoint: ΔTm (°C)

Previously resolved entries follow.
• CC(CCN1C(=O)c2ccc3c4c(ccc(c24)C1=O)C(=O)N(CCC(C)N1CCN(C)CC1)C3=O)N1CCN(C)CC1 (stereo not drawn) = 18.8
• CN1CCN(CCCN2C(=O)c3ccc4c5c(ccc(c35)C2=O)C(=O)N(CCCN2CCN(C)CC2)C4=O)CC1 = 2
• CN1CCN(CC2(CN3C(=O)c4ccc5c6c(ccc(c46)C3=O)C(=O)N(CC3(CN4CCN(C)CC4)CC3)C5=O)CC2)CC1 = 7.7
• C[n+]1cccc(N2C(=O)c3ccc4c5c(ccc(c35)C2=O)C(=O)N(c2ccc[n+](C)c2)C4=O)c1 = 1.3

1: C[n+]1cccc2c(N3C(=O)c4ccc5c6c(ccc(c46)C3=O)C(=O)N(c3cccc4c3ccc[n+]4C)C5=O)cccc21
2: C[n+]1cccc2cc(N3C(=O)c4ccc5c6c(ccc(c46)C3=O)C(=O)N(c3ccc4c(ccc[n+]4C)c3)C5=O)ccc21
## Task Kindly identify the item with the lower ΔTm figure among these two: 1 and 2 Reply with the label of the item you choose.
## Result 1

a: CN1CCN(CCN2C(=O)c3ccc4c5c(ccc(c35)C2=O)C(=O)N(CCN2CCN(C)CC2)C4=O)CC1
b: C[n+]1ccc(CN2C(=O)c3ccc4c5c(ccc(c35)C2=O)C(=O)N(Cc2cc[n+](C)cc2)C4=O)cc1
## Task Of the two listed items, which has the higher ΔTm? First: a Second: b Indicate which entry you chose by stating its label.
## Result a
(a: 11.3 °C, b: 4.9 °C)
